- experimentNotes: plasmodial surface anion channel blockers, osmotic lysis – cell-based, P. falciparum Indochina, OD700, 18 h, primary screen (AID 1157)
- details: P. falciparum Indochina infected erythrocytes, osmotic lysis OD700, 18 h; higher = more signal, called active from +8 up or from −8 down
Could you label it T if measured z-score is 0.8 or higher, and F otherwise?

Recorded results for 5 compounds are shown here.
Could you verify whether the entry CC(C)c1ccc(NN2C(C(O)c3cccs3)C=CC3C(=O)N(c4ccccc4)C(=O)C32)cc1 (configuration not stated) shows z-score of no less than 0.8?
T

Please indicate if the recorded z-score for `COCCOC(=O)N1C(=O)[C@@]2(c3cc(C#CCCO)ccc31)[C@H](C(=O)NC[C@H](O)c1ccccc1)[C@H]1C(=O)O[C@H](c3ccccc3)[C@H](c3ccccc3)N1[C@@H]2c1ccccc1OCCO` meets or exceeds 0.8.
F

Does the compound `[N-]=[N+]=Nc1ccccc1C[C@]1(C(=O)NCCN2CCOCC2)N=C(c2ccc(OCCCO)cc2)O[C@H]1c1ccccc1N=[N+]=[N-]` have recorded z-score that is 0.8 or more?
T

Reported z-score reaches at least 0.8 for `O=C(N1CCOCC1)[C@@]1(CCS(=O)(=O)c2ccccc2)COC(c2ccc(OCCCO)cc2)=N1` ?
T

Could you verify whether the entry `CCCCC(=C=CC[C@H](O)c1cccc(OCCO)c1)C[C@H](O)COCc1ccccc1` shows z-score of no less than 0.8?
T

Attention now shifts to the item below.
Record `C[C@@H]1ON(c2ccccc2)[C@H](c2ccccc2)[C@H]1C(=O)N1C(=O)OC[C@H]1Cc1ccccc1` ; criterion: z-score no lower than 0.8. Met?
F
